# assay.notes: Oral bioavailability in monkey
# Type: ADME, organism-based
# measurement.context: cercopithecidae, in vivo
readout.name: bioavailability

smiles: CCc1nnc2n1CCN(C(=O)C[C@H](N)Cc1ccc(F)c(F)c1)C2.Cl
result.value: 1%
--
smiles: Cl.N[C@@H](CC(=O)N1CCn2c(nnc2C(F)(F)F)C1)Cc1cc(F)c(F)cc1F
result.value: 68%

---

# assay.notes: Maximum concentration was measured in plasma of monkey upon peroral dose of 2 mpk
# Format: ADME, organism-based
# Parameters: dose 2 mpk, route oral
# measurement.context: cercopithecidae, po, 2 mg/kg

smiles: Cl.N[C@@H](CC(=O)N1CCn2c(nnc2C(F)(F)F)C1)Cc1cc(F)c(F)cc1F
measure.unit: nM
Cmax: 330

---

# assay.notes: Maximum concentration in plasma of monkey upon peroral dose of 2 mpk
# Format: ADME, organism-based
# Parameters: dose 2 mpk, route oral
# measurement.context: cercopithecidae, po, 2 mg/kg
readout.name: Cmax

smiles: CCc1nnc2n1CCN(C(=O)C[C@H](N)Cc1ccc(F)c(F)c1)C2.Cl
readout.name: Cmax
result.value: 12 nM

---

// endpoint IC50 / system UniProt Q86TI2
Sequence (Q86TI2 whole entry): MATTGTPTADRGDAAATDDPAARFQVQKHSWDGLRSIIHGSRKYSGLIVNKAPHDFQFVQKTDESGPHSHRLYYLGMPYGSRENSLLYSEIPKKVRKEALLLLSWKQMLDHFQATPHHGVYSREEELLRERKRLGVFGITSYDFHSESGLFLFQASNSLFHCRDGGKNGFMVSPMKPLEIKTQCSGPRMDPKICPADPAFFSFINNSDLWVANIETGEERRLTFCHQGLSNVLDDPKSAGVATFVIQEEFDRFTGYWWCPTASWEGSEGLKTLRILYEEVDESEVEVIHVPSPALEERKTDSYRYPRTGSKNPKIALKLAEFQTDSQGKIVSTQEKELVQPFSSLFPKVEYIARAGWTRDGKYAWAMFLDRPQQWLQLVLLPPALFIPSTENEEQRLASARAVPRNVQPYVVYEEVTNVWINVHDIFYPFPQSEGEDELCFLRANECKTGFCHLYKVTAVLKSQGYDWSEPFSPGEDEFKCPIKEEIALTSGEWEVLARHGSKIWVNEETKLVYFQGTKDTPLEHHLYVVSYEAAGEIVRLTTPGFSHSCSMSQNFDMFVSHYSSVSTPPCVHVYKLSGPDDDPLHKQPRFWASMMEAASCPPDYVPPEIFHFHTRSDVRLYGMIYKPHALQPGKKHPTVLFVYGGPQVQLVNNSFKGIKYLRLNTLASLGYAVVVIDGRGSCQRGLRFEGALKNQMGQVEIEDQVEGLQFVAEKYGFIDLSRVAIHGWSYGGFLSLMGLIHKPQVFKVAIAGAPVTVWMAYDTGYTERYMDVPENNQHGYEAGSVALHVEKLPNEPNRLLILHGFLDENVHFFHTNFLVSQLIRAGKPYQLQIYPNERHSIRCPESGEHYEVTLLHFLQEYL
readout.name: IC50

smiles: CCc1nnc2n1CCN(C(=O)C[C@H](N)Cc1ccc(F)c(F)c1)C2.Cl
result.value: > 100 µM
--
smiles: Cl.N[C@@H](CC(=O)N1CCn2c(nnc2C(F)(F)C(F)(F)F)C1)Cc1cc(F)c(F)cc1F
result.value: > 100 µM
--
smiles: Cl.N[C@@H](CC(=O)N1CCn2cnnc2C1)Cc1cc(F)c(F)cc1F
result.value: > 100 µM

---

# assay.notes: Plasma half-life was measured in dog
# Format: ADME, cell-free, Canis lupus familiaris
# half-life listing for each entry below

smiles: Cl.N[C@@H](CC(=O)N1CCn2c(nnc2C(F)(F)F)C1)Cc1cc(F)c(F)cc1F
half-life (h): 4.9

smiles: CCc1nnc2n1CCN(C(=O)C[C@H](N)Cc1ccc(F)c(F)c1)C2.Cl
half-life (h): 2.3

---

# pIC50 listing for each entry below
# test.target: Dipeptidyl peptidase 2 (Homo sapiens, UniProt Q9UHL4)
# assay.notes: In vitro inhibitory concentration was measured against quiescent cell proline dipeptidase
pIC50: −log10 of the molar value.

smiles: Cl.N[C@@H](CC(=O)N1CCn2c(nnc2C(F)(F)F)C1)Cc1cc(F)ccc1F
pIC50: < 4.00
--
smiles: Cl.N[C@@H](CC(=O)N1CCn2c(nnc2C(F)(F)C(F)(F)F)C1)Cc1cc(F)c(F)cc1F
pIC50: 4.11
--
smiles: Cl.N[C@@H](CC(=O)N1CCn2c(nnc2C(F)(F)C(F)(F)F)C1)Cc1cc(F)ccc1F
pIC50: < 4.00

---

# assay.notes: Plasma half-life was measured in plasma of rat
# Type: ADME, cell-free
readout.name: half-life (h)

smiles: Cl.N[C@@H](CC(=O)N1CCn2c(nnc2C(F)(F)F)C1)Cc1cc(F)ccc1F
result.value: 1.6

---

# half-life listing for each entry below
# assay.notes: Plasma half-life was measured in rat
# Assay type: ADME, organism-based

smiles: Cl.N[C@@H](CC(=O)N1CCn2cnnc2C1)Cc1cc(F)c(F)cc1F
half-life / h: 1
//
smiles: Cl.N[C@@H](CC(=O)N1CCn2c(nnc2C(F)(F)F)C1)Cc1cc(F)c(F)cc1F
half-life / h: 1.7
//
smiles: Cl.N[C@@H](CC(=O)N1CCn2c(nnc2C(F)(F)C(F)(F)F)C1)Cc1cc(F)ccc1F
half-life / h: 1.5
//
smiles: CCc1nnc2n1CCN(C(=O)C[C@H](N)Cc1ccc(F)c(F)c1)C2.Cl
half-life / h: 2.7
//
smiles: Cl.N[C@@H](CC(=O)N1CCn2c(nnc2C(F)(F)F)C1)Cc1ccc(F)c(F)c1
half-life / h: 1.8
//
smiles: Cl.N[C@@H](CC(=O)N1CCn2c(nnc2C(F)(F)C(F)(F)F)C1)Cc1cc(F)c(F)cc1F
half-life / h: 2.3
